Each item that follows carries a reported Difference (pK2 - pK1).
# test.protocol: acid dissociation index (pK1, pK2) at 25° C.
# Assay type: physicochemical
# assay.conditions: 25° C.; method (D)
// no unit, no text: just the number

Answered examples (5):
May I ask what Difference (pK2 - pK1) has been recorded for CCC(C(=O)O)C(C)C(=O)O (stereo not drawn) ?
2.90

Same for O=C(O)[C@H]1C[C@H]1C(=O)O [Cis-1,2-cyclopropanedicarboxylic acid]
3.09

Same for CC(C(=O)O)C(C)C(=O)O (stereo not drawn)
2.08

Same for CC(C(=O)O)C(=O)O
2.71

Same for CC(C)C(C(=O)O)C(=O)O
2.96

New cases:
May I ask what Difference (pK2 - pK1) has been recorded for CCC(CC(=O)O)(CC(=O)O)c1ccccc1 ?
3.06

Same for O=C(O)[C@H]1CCCC[C@H]1C(=O)O [Cis-1,2-cyclohexanedicarboxylic acid]
2.49

Same for CC(C)(C(=O)O)C(C)(C)C(=O)O
3.85

Same for O=C(O)[C@H]1CC[C@H]1C(=O)O [Cis-1,2-cyclobutanedicarboxylic acid]
2.07

----------
# test.protocol: acid dissociation index (pK1, pK2) at 25° C.
# Format: physicochemical
# assay.conditions: 25° C.; method (D)
# Procedure: The organic dibasic acid used as a deodorant in the present invention is selected from organic dibasic acids and/or salts thereof having a difference between the first acid dissociation index and the second acid dissociation index of 1.7 or more at 25° C. (hereinafter, described as deodorant organic dibasic acid). The acid dissociation index can be measured, for example, by a method (A) described in The Journal of Physical Chemistry vol. Further, previously obtained data may also be used. […]
Note to self: class = bucket of Difference (pK2 - pK1), per bin 1 = under 3, bin 2 = from 3 up to 4, bin 3 = 4 and over

# bin label for CCC(C(=O)O)C(CC)C(=O)O (stereo not drawn) [2,3-diethylsuccinic acid]
bin 1

Read the next record carefully.
# bin label for CC1(C)[C@H](C(=O)O)[C@@H]1C(=O)O
bin 3

----------
# test.protocol: acid dissociation index (pK1, pK2) at 25° C.
# Format: physicochemical
# assay.conditions: 25° C.; method (D)
# Procedure: The organic dibasic acid used as a deodorant in the present invention is selected from organic dibasic acids and/or salts thereof having a difference between the first acid dissociation index and the second acid dissociation index of 1.7 or more at 25° C. (hereinafter, described as deodorant organic dibasic acid). The acid dissociation index can be measured, for example, by a method (A) described in The Journal of Physical Chemistry vol. Further, previously obtained data may also be used. […]
Lab note: anything with Difference (pK2 - pK1) at or over 3 counts as criterion met; the rest go in criterion not met.

Examples from the recorded data:
Could you verify whether the entry CCC(C)(C(=O)O)C(=O)O [2-ethyl-2-methylmalonic acid] shows Difference (pK2 - pK1) of no less than 3?
criterion met

Same for O=C(O)[C@@H]1CCCCCC[C@H]1C(=O)O (relative stereo) [Trans-1,2-cyclooctanedicarboxylic acid]
criterion not met

Same for CC(C)(C)C(C)(CC(=O)O)CC(=O)O [3-t-buthyl-3-methylglutaric acid]
criterion met

Read the next record carefully.
Could you verify whether the entry O=C(O)[C@H]1CCCCCC[C@H]1C(=O)O [Cis-1,2-cyclooctanedicarboxylic acid] shows Difference (pK2 - pK1) of no less than 3?
criterion met

----------
# test.protocol: acid dissociation index (pK1, pK2) at 25° C.
# Assay type: physicochemical
# assay.conditions: 25° C.; method (D)
Each item that follows carries a reported Difference (pK2 - pK1).

May I ask what Difference (pK2 - pK1) has been recorded for O=C(O)[C@@H]1CCCCC[C@H]1C(=O)O (relative stereo) [Trans-1,2-cycloheptanedicarboxylic acid] ?
1.88

Same for O=C(O)/C=C\C(=O)O
4.08

Same for CCC(C(=O)O)(C(=O)O)C(C)C
6.07

Same for O=C(O)CC(CC(=O)O)(c1ccccc1)c1ccccc1
2.79

Same for CCC(C(=O)O)C(=O)O
2.85

Same for O=C(O)[C@H]1CCCCC[C@H]1C(=O)O [Cis-1,2-cycloheptanedicarboxylic acid]
3.73

Same for CC1CCCC(CC(=O)O)(CC(=O)O)C1 (stereo not drawn)
2.59

Same for O=C(O)CC(C(=O)O)c1ccccc1 (stereo not drawn)
1.77

Same for O=C(O)CC1(CC(=O)O)CCCC1
2.97

----------
# test.protocol: acid dissociation index (pK1, pK2) at 25° C.
# Type: physicochemical
# assay.conditions: 25° C.; method (D)
property.measured: Difference (pK2 - pK1)
// no unit, no text: just the number

Answered examples (4):
May I ask what Difference (pK2 - pK1) has been recorded for CCC(CC)(C(=O)O)C(=O)O [2,2-diethylmalonic acid] ?
5.27

Same for O=C(O)[C@@H]1CCC[C@H]1C(=O)O (relative stereo) [Trans-1,2-cyclopentandicarboxylic acid]
1.85

Same for CC(C)(C)C(C(=O)O)C(C(=O)O)C(C)(C)C (centres unmarked) [2,3-di-t-butylsuccinic acid]
8.06

Same for CC1CCC(CC(=O)O)(CC(=O)O)CC1 [4-methylcyclohexyl-1,1-diacetic acid]
2.61

// next entry
May I ask what Difference (pK2 - pK1) has been recorded for CC(C)(C)C(C(=O)O)C(=O)O [2-t-butylmalonic acid] ?
4.12

----------
Each item that follows carries a reported Deodorization rate.
# test.protocol: Deodorization effect on ammonia odor (dessicator, Kitagawa type gas detector)
# assay.conditions: 250 mg base agent, 50 mg of 1% ammonia aqueous solution, 2.5 liter dessicator, 20 minutes; relative to blank 1
Numbers only; they are read as %.

Answered examples (3):
May I ask what Deodorization rate has been recorded for C=C(C)C(=O)OCCCCCCCCCCCC [Comparative Example 1, lauryl methacrylate, reference compound] ?
10

Same for O=C1OC(=O)C2C3C=CC(C3)C12 (stereo not shown)
88

Same for O=C(O)CCC(=O)O [Comparative Example 2, succinic acid, reference compound]
33

// next entry
May I ask what Deodorization rate has been recorded for O=C(O)[C@H]1CCCC[C@H]1C(=O)O [Deodorant base agent 1, cis-cyclohexane-1,2-dicarboxylic acid] ?
79

----------
# test.protocol: acid dissociation index (pK1, pK2) at 25° C.
# Assay type: physicochemical
# assay.conditions: 25° C.; method (D)
property.measured: Difference (pK2 - pK1)
// no unit, no text: just the number

May I ask what Difference (pK2 - pK1) has been recorded for O=C(O)[C@H]1CCC[C@H]1C(=O)O [Cis-1,2-cyclopentanedicarboxylic acid] ?
2.15

Same for CCC(C)(CC(=O)O)CC(=O)O
3.08

Same for CC(C)(CC(=O)O)CC(=O)O
2.60

Same for CC(CC(=O)O)(CC(=O)O)c1ccccc1
2.05

Same for CCC(CC)(CC(=O)O)CC(=O)O
3.75

New cases:
May I ask what Difference (pK2 - pK1) has been recorded for CCCC(CCC)(CC(=O)O)CC(=O)O ?
3.83

Same for CC(C)C(C)(CC(=O)O)CC(=O)O
3.14

Same for CCCC(CCC)(C(=O)O)C(=O)O
5.32

Same for CCC(CC)C(CC)(CCC(=O)O)C(=O)O (stereo not drawn)
5.16

----------
# test.protocol: acid dissociation index (pK1, pK2) at 25° C.
# Assay type: physicochemical
# assay.conditions: 25° C.; method (D)
Each item that follows carries a reported Difference (pK2 - pK1).
// no unit, no text: just the number

Answered examples (4):
May I ask what Difference (pK2 - pK1) has been recorded for CC(C)C(C(=O)O)(C(=O)O)C(C)C ?
6.73

Same for CCCC(CC(=O)O)(CC(=O)O)c1ccccc1
3.06

Same for O=C(O)[C@@H]1CCCC[C@H]1C(=O)O (relative stereo) [Trans-1,2-cyclohexanedicarboxylic acid]
1.76

Same for CC(C)C(CC(=O)O)(CC(=O)O)C(C)C
4.05

New cases:
May I ask what Difference (pK2 - pK1) has been recorded for CC(C)(C(=O)O)C(=O)O ?
2.70

Same for O=C(O)CC1(CC(=O)O)CCCCC1
3.59

Same for CC1CCCCC1(CC(=O)O)CC(=O)O (stereo not shown)
3.36
